- measurement_target: F508delCFTR (Homo sapiens, UniProt P13569, DEL508-508)
- Construct: expressed in transfected cells; host or cells: CFBE41o- human lung-derived epithelial cells (CFBE4lo-F508delCFTR-HRP), doxycycline-inducible
- Sequence (P13569 with tags, fused parts or gaps DEL508-508): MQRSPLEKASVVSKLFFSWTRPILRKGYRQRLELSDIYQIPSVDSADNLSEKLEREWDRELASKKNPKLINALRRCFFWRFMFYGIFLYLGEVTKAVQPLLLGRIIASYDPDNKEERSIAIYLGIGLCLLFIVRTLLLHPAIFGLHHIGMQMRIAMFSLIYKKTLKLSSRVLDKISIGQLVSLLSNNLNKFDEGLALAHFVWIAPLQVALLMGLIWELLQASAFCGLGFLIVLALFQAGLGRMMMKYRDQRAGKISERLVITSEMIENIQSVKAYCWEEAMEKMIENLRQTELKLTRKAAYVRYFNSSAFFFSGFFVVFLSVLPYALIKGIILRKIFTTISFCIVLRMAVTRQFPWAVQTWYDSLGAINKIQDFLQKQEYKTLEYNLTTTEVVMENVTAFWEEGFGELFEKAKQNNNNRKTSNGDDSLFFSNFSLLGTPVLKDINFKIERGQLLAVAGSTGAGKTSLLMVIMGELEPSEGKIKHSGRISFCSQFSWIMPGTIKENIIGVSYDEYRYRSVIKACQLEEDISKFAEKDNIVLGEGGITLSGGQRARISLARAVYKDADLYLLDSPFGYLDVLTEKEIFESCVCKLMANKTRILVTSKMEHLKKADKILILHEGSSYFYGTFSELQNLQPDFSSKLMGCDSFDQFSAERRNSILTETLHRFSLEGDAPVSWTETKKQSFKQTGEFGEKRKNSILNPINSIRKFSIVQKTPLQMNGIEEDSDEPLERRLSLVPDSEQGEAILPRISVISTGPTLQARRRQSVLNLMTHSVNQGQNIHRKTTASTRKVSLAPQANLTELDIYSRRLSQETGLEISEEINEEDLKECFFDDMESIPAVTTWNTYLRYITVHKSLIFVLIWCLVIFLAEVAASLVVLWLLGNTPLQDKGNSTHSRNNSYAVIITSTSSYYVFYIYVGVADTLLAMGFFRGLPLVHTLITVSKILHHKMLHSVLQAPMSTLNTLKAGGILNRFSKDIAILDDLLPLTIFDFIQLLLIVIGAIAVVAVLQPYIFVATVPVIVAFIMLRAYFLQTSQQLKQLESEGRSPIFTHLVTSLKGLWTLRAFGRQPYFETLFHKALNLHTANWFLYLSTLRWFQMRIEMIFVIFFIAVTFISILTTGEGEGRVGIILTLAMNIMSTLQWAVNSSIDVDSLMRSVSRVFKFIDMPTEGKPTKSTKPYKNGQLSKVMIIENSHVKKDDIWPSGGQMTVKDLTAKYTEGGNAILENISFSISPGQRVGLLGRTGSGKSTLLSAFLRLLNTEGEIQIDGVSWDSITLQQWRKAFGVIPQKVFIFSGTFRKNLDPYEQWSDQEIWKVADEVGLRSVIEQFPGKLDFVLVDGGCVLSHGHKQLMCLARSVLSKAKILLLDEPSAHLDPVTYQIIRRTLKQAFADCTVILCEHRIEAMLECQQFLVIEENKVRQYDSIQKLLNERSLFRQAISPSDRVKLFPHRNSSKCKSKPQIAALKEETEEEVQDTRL
- measurement_description: Cell Surface Expression-Horse Radish Peroxidase (CSE-HRP) Assay;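 on Maximum % activity (with co-corrector): co-corrector and positive control are both the same reference corrector at 2 µM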
- Format: cell-based
- experimental_setup: with co-corrector (2 μM); maximum at any tested concentration, normalized to on-plate positive control

- smiles_entry: "COc1cnc(C(C)(C)C)cc1CN[C@H]1[C@H](C(C)(C)C)[C@@H](C(=O)O)N(C(=O)C2CCCCC2)[C@H]1c1ccccc1"
  Maximum % activity (with co-corrector): "+++ (≥350)"
- smiles_entry: "COc1ccc(C(C)(C)C)cc1CN[C@H]1[C@H](C(C)(C)C)[C@@H](C(=O)O)N(C(=O)C2CCCCC2)[C@H]1c1ccccc1OC(F)F"
  Maximum % activity (with co-corrector): "+++ (≥350)"
- smiles_entry: "COc1ccc(C(C)(C)C)cc1CN[C@H]1[C@H](C(C)(C)C)[C@@H](C(=O)O)N(C(=O)Cc2ccc(F)c(F)c2)[C@H]1c1ccccc1"
  Maximum % activity (with co-corrector): "+++ (≥350)"

---

Readings of EC50 for the listed compounds
- measurement_target: F508delCFTR (Homo sapiens, UniProt P13569, DEL508-508)
- Construct: expressed in transfected cells; host or cells: CFBE41o- human lung-derived epithelial cells (CFBE4lo-F508delCFTR-HRP), doxycycline-inducible
- measurement_description: Cell Surface Expression-Horse Radish Peroxidase (CSE-HRP) Assay
- Assay type: cell-based
- experimental_setup: CSE-HRP; with co-corrector (2 μM of 3-[(2R,4R)-4-({[1-(2,2-difluoro-1,3-benzodioxol-5-yl)cyclopropyl]carbonyl}amino)-7-methoxy-3,4-dihydro-2H-chromen-2-yl]benzoic acid); read-out: EC50 (with co-corrector)

- compound: "COc1ccc(C(C)(C)C)cc1CN[C@H]1[C@H](C(C)(C)C)[C@@H](C(=O)O)N(C(=O)CC2CCCC2(F)F)[C@H]1c1ccccc1 (stereo partly drawn) [II-219]"
  result_value: "< 1000 nM"
- compound: "COc1ccc(C(C)(C)C)cc1CN[C@H]1[C@H](C(C)(C)C)[C@@H](C(=O)O)N(C(=O)CC2(O)CCCCC2)[C@H]1c1ccccc1 [II-210]"
  result_value: "1000 to 10000 nM"
- compound: "COc1ccc(C(C)(C)C)cc1CN[C@H]1[C@H](C(C)(C)C)[C@@H](C(=O)O)N(C(=O)C2CC(=O)N(C3CC3)C2)[C@H]1c1ccccc1 (stereo partly drawn) [II-239]"
  result_value: "1000 to 10000 nM"
- compound: "COc1cc(C(F)(F)F)ccc1CN[C@H]1[C@H](C(C)(C)C)[C@@H](C(=O)O)N(C(=O)C2CCCCC2)[C@H]1c1cccnc1C [II-94]"
  result_value: "1000 to 10000 nM"
- compound: "COc1ccc(C(F)(F)F)cc1CN[C@@H]1[C@@H](C(C)(C)C)[C@H](C(=O)O)N(C(=O)[C@@H]2CCC[C@@H](OC)C2)[C@@H]1c1ccccc1 (racemic) [II-36]"
  result_value: "1000 to 10000 nM"
- compound: "COc1ccc(C(F)(F)F)cc1CN[C@@H]1[C@@H](C(C)(C)C)[C@H](C(=O)O)N(C(=O)C2CCCCO2)[C@@H]1c1ccccc1N(C)C (mixture of isomers) [II-20]"
  result_value: "1000 to 10000 nM"

Record COc1ncc(C2CC2)cc1CN[C@H]1[C@H](C(C)(C)C)[C@@H](C(=O)O)N(C(=O)[C@@H]2CCCO2)[C@H]1c1ccccc1Br [Example I-293] , field EC50: 1000 to 10000 nM

Record CCn1c(C)c(CC(=O)N2[C@H](C(=O)O)[C@@H](C(C)(C)C)[C@H](NCc3cc(C(C)(C)C)ccc3OC)[C@@H]2c2ccccc2)c2ccccc21 [II-172] , field EC50: < 1000 nM

Record COc1ccc(-c2cccc(C#N)c2)cc1CN[C@H]1[C@H](C(C)(C)C)[C@@H](C(=O)O)N(C(=O)C2CCCCC2)[C@H]1c1ccccc1 [II-281] , field EC50: 1000 to 10000 nM

Record COc1nc2ccccc2cc1CN[C@H]1[C@H](C(C)(C)C)[C@@H](C(=O)O)N(C(=O)OC(C)C)[C@H]1c1ccccc1C(C)C [Example I-250] , field EC50: < 1000 nM

Record COc1ccc(C(C)(C)C)cc1CN[C@H]1[C@H](C(C)(C)C)[C@@H](C(=O)O)N(C(=O)c2ccc(Oc3ccccn3)cc2)[C@H]1c1ccccc1 [II-224] , field EC50: < 1000 nM

Record COc1ccc(C(C)(C)C)cc1CN[C@H]1[C@H](C(C)(C)C)[C@@H](C(=O)O)N(C(=O)Cc2cc(C)sc2C)[C@H]1c1ccccc1 [II-208] , field EC50: < 1000 nM

Record COc1ccc(Br)c(CN[C@H]2[C@H](C(C)(C)C)[C@@H](C(=O)O)N(C(=O)C3CCCCC3)[C@H]2c2ccccc2)c1 [II-110] , field EC50: 1000 to 10000 nM

Record COc1ccccc1CN[C@@H]1[C@@H](C(C)(C)C)[C@H](C(=O)O)N(C(=O)OC(C)C)[C@@H]1c1ccccc1 (racemic) [II-46] , field EC50: 1000 to 10000 nM

Record COc1cc(C(F)(F)F)ccc1CN[C@H]1[C@H](C(C)(C)C)[C@@H](C(=O)O)N(C(=O)[C@@H]2CCC[C@@H](OC)C2)[C@H]1c1ccccc1 [Example I-255] , field EC50: 1000 to 10000 nM

Record COc1ccc(Cl)cc1CN[C@H]1[C@H](C(C)(C)C)[C@@H](C(=O)O)N(C(=O)C2CCCCC2)[C@H]1c1cccnc1C [II-95] , field EC50: 1000 to 10000 nM

Record COc1ccc(C(C)(C)C)cc1CN[C@H]1[C@H](C(C)(C)C)[C@@H](C(=O)O)N(C(=O)C2Cc3ccccc3CO2)[C@H]1c1ccccc1 (stereo partly drawn) [II-300] , field EC50: < 1000 nM

Record COc1ncc(C2CC2)cc1CN[C@H]1[C@H](C(C)(C)C)[C@@H](C(=O)O)N(C(=O)C2CCCCC2)[C@H]1c1ccccc1 [II-259] , field EC50: 1000 to 10000 nM

Record Cc1cc(C(F)(F)F)cc(N[C@H]2[C@H](C(C)(C)C)[C@@H](C(=O)O)N(C(=O)C3CCCCC3)[C@H]2c2ccccn2)n1 (racemic) [II-53] , field EC50: 1000 to 10000 nM

Record COc1ccc(C(C)(C)C)cc1CN[C@H]1[C@H](C(C)(C)C)[C@@H](C(=O)O)N(C(=O)C(C)Oc2ccccc2Cl)[C@H]1c1ccccc1 (stereo partly drawn) [II-312] , field EC50: < 1000 nM

Record COc1ncc(C(F)(F)F)cc1CN[C@H]1[C@H](C(C)(C)C)[C@@H](C(=O)O)N(C(=O)[C@@H]2CCCCO2)[C@H]1c1cccc2c1OCC2 [Example I-298] , field EC50: 1000 to 10000 nM

Record COc1ccc(C(F)(F)F)cc1CN[C@@H]1[C@@H](C(C)(C)C)[C@H](C(=O)O)N(C(=O)C2CCCOC2)[C@@H]1c1ccccc1N(C)C (mixture of isomers) [II-21] , field EC50: 1000 to 10000 nM

Record COc1cc(C(F)(F)F)ccc1CN[C@H]1[C@H](C(C)(C)C)[C@@H](C(=O)O)N(C(=O)[C@@H]2CCCCO2)[C@H]1c1cccnc1OC [II-92] , field EC50: 1000 to 10000 nM

Record COc1ccc(Cl)cc1CN[C@H]1[C@H](C(C)(C)C)[C@@H](C(=O)O)N(C(=O)OC(C)C)[C@H]1c1ccccc1OC [II-137] , field EC50: 1000 to 10000 nM

---

Readings of Emax for the listed compounds
- measurement_target: F508delCFTR (Homo sapiens, UniProt P13569, DEL508-508)
- Construct: expressed in transfected cells; host or cells: CFBE41o- human lung-derived epithelial cells (CFBE4lo-F508delCFTR-HRP), doxycycline-inducible
- measurement_description: Cell Surface Expression-Horse Radish Peroxidase (CSE-HRP) Assay;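 on Maximum % activity (without co-corrector): percent of the 2 µM on-plate positive control corrector response above DMSO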
- Type: cell-based
- experimental_setup: test compound without co-corrector; maximum at any tested concentration, normalized to on-plate positive control; read-out: Maximum % activity (without co-corrector)

As a guide, the following entries are already answered.
- compound: "COc1ncc(C2CCC2)cc1CN[C@H]1[C@H](C(C)(C)C)[C@@H](C(=O)O)N(C(=O)C2CCc3cc(F)ccc3O2)[C@H]1c1ccccc1 (stereo partly drawn)"
  Emax: "100 to 200%"
- compound: "Cc1cc(C(F)(F)F)cc(N[C@H]2C(c3ccccc3)N(C(=O)N(C(C)C)C(C)C)[C@@H](C(=O)O)[C@@H]2C2CC2)n1 (mixture of isomers)"
  Emax: "< 100%"
- compound: "COc1cc(C(F)(F)F)ccc1CN[C@H]1[C@H](C(C)(C)C)[C@@H](C(=O)O)N(C(=O)[C@H]2CCC[C@H](OC)C2)[C@H]1c1ccccc1"
  Emax: "> 200%"
- compound: "COc1cccc(N[C@@H]2[C@@H](C(C)(C)C)[C@H](C(=O)O)N(C(=O)C3CCCCC3)[C@@H]2c2ccccc2)n1 (racemic)"
  Emax: "< 100%"
- compound: "COc1cc2c(cc1CN[C@H]1[C@H](C(C)(C)C)[C@@H](C(=O)O)N(C(=O)OC(C)C)[C@H]1c1cccnc1OC(C)C)CCC2"
  Emax: "> 200%"

Record COc1ccc(C(F)(F)F)cc1CN[C@H]1[C@H](C(C)(C)C)[C@@H](C(=O)O)N(C(=O)[C@](OC)(c2ccccc2)C(F)(F)F)[C@H]1c1ccccc1 , field Emax: < 100%

Record COc1ccc(CN[C@@H]2[C@@H](C(C)(C)C)[C@H](C(=O)O)N(C(=O)C3CCCCC3)[C@@H]2c2ccccc2)cn1 (racemic) , field Emax: < 100%

Record COc1cccc([C@H]2[C@@H](Nc3cc(C(F)(F)F)cc(C)n3)[C@H](C(C)(C)C)[C@@H](C(=O)O)N2C(=O)C2CCCCC2)n1 (racemic) , field Emax: < 100%

Record COc1ccc(C(C)(C)C)cc1CN[C@H]1[C@H](C(C)(C)C)[C@@H](C(=O)O)N(C(=O)C2CCc3ccc(F)cc3O2)[C@H]1c1cccnc1N(C)C (single isomer, unassigned) , field Emax: 100 to 200%

Record COc1ccc(C2(C)CCC2)cc1CN[C@H]1[C@H](C(C)(C)C)[C@@H](C(=O)O)N(C(=O)OC(C)C)[C@H]1c1ccccc1 , field Emax: > 200%

Record CC(C)(C)[C@H]1[C@H](NCc2cc3ccccc3nc2O)[C@H](c2ccccc2)N(C(=O)C2CCCCC2)[C@@H]1C(=O)O , field Emax: < 100%

Record COc1ccc(C(F)(F)F)cc1CN[C@@H]1[C@@H](C(C)(C)C)[C@H](C(=O)O)N(C(=O)[C@H](OC)c2ccccc2)[C@@H]1c1ccccc1N(C)C , field Emax: < 100%
